- System: Pseudomonas aeruginosa PAE19-3
- Type: cell-based
- Condition: PAE19-3
Bridge positions count the residues as written; N and C are the ends. Square brackets hold non-standard residues; d marks the D form. Peptide text beside a SMILES is read from it. * marks the point of attachment. Heptanoyl(6-Me) = CC(C)CCCCC(=O)*; Sulfomethyl = O=S(=O)(O)C*; Nonanoyl = CCCCCCCCC(=O)*; X1 = CC[C@H](C)CCCCC(=O)*; Heptanoyl = CCCCCCC(=O)*; Orn = NCCC[C@H](N)C(=O)O; dDap = NC[C@@H](N)C(=O)O; Dab = NCC[C@H](N)C(=O)O; Dap = NC[C@H](N)C(=O)O
In plain terms, low MIC, meaning strictly below 1 µg/mL, gives Criterion met, and everything else gives Criterion not met.

Solved cases (3 shown):
1) CC(C)CCCCC(=O)N[C@@H](CCN)C(=O)N[C@H](C(=O)N[C@H](CO)C(=O)N[C@H]1CCNC(=O)[C@H]([C@@H](C)O)NC(=O)[C@H](CCN)NC(=O)[C@H](CCN)NC(=O)[C@H]([C@@H](C)OCS(=O)(=O)O)NC(=O)[C@@H](Cc2ccccc2)NC(=O)[C@H](CCN)NC1=O)[C@@H](C)O [Compound 105] ({Heptanoyl(6-Me)}-[Dab]T[dS][Dab][Dab][dF]T(Sulfomethyl)[Dab][Dab]T; lactam 4-C)	Criterion met
2) CCCCCCCCC(=O)N[C@@H](CN)C(=O)N[C@H](C(=O)N[C@H](CO)C(=O)N[C@H]1CCNC(=O)[C@H]([C@@H](C)O)NC(=O)[C@H](CCN)NC(=O)[C@H](CCN)NC(=O)[C@H]([C@@H](C)O)NC(=O)[C@@H](Cc2ccccc2)NC(=O)[C@H](CCN)NC1=O)[C@@H](C)O [Compound 55] (Nonanoyl-[Dap]T[dS][Dab][Dab][dF]T[Dab][Dab]T; lactam 4-C)	Criterion not met
3) CCCCCCC(=O)N[C@@H](CCN)C(=O)N[C@H](C(=O)N[C@@H](CCCN)C(=O)N[C@H]1CCNC(=O)[C@H]([C@@H](C)O)NC(=O)[C@H](CCN)NC(=O)[C@H](CCN)NC(=O)[C@H](CC(C)C)NC(=O)[C@@H](Cc2ccccc2)NC(=O)[C@H](CCN)NC1=O)[C@@H](C)O [Compound 49] (Heptanoyl-[Dab]T[Orn][Dab][Dab][dF]L[Dab][Dab]T; lactam 4-C)	Criterion met

In: Confirm or reject: MIC of CC[C@H](C)CCCCC(=O)N[C@@H](CCN)C(=O)N[C@H](C(=O)N[C@H](CN)C(=O)N[C@H]1CCNC(=O)[C@H]([C@@H](C)O)NC(=O)[C@H](CCN)NC(=O)[C@H](CCN)NC(=O)[C@H]([C@@H](C)O)NC(=O)[C@@H](Cc2ccccc2)NC(=O)[C@H](CCN)NC1=O)[C@@H](C)O [Compound 1] (X1-[Dab]T[dDap][Dab][Dab][dF]T[Dab][Dab]T; lactam 4-C) lies strictly below 1 µg/mL
Out: Criterion met

In: Here's an entry: CCCCCCCCC(=O)N[C@@H](CCN)C(=O)N[C@H](C(=O)N[C@@H](CCCN)C(=O)N[C@H]1CCNC(=O)[C@H]([C@@H](C)O)NC(=O)[C@H](CCN)NC(=O)[C@H](CCN)NC(=O)[C@H](CC(C)C)NC(=O)[C@@H](Cc2ccccc2)NC(=O)[C@H](CCN)NC1=O)[C@@H](C)O [Compound 50] (Nonanoyl-[Dab]T[Orn][Dab][Dab][dF]L[Dab][Dab]T; lactam 4-C) . Is its MIC below 1 µg/mL?
Out: Criterion met

In: I wonder whether CC(C)CCCCC(=O)N[C@@H](CCN)C(=O)N[C@H](C(=O)N[C@H](CO)C(=O)N[C@H]1CCNC(=O)[C@H]([C@@H](C)O)NC(=O)[C@H](CCN)NC(=O)[C@H](CCN)NC(=O)[C@H]([C@@H](C)O)NC(=O)[C@@H](Cc2ccccc2)NC(=O)[C@H](CCN)NC1=O)[C@@H](C)OCS(=O)(=O)O [Compound 104] ({Heptanoyl(6-Me)}-[Dab]T(Sulfomethyl)[dS][Dab][Dab][dF]T[Dab][Dab]T; lactam 4-C) has MIC below 1 µg/mL. Can you tell?
Out: Criterion met

In: hey, is MIC for CC(C)CCCCC(=O)N[C@@H](CCN)C(=O)N[C@H](C(=O)N[C@H](CO)C(=O)N[C@H]1CCNC(=O)[C@H]([C@@H](C)O)NC(=O)[C@H](CCN)NC(=O)[C@H](CCN)NC(=O)[C@H]([C@@H](C)O)NC(=O)[C@@H](Cc2ccccc2)NC(=O)[C@H](CCCN)NC1=O)[C@@H](C)O [Compound 67] ({Heptanoyl(6-Me)}-[Dab]T[dS][Dab][Orn][dF]T[Dab][Dab]T; lactam 4-C) lower than 1 µg/mL or not?
Out: Criterion not met

In: Is it true that MIC reported for CC(C)CCCCC(=O)N[C@@H](CCN)C(=O)N[C@H](C(=O)N[C@H](CO)C(=O)N[C@H]1CCNC(=O)[C@H]([C@@H](C)O)NC(=O)[C@H](CCN)NC(=O)[C@H](CN)NC(=O)[C@H]([C@@H](C)O)NC(=O)[C@@H](Cc2ccccc2)NC(=O)[C@H](CCN)NC1=O)[C@@H](C)O [Compound 72] ({Heptanoyl(6-Me)}-[Dab]T[dS][Dab][Dab][dF]T[Dap][Dab]T; lactam 4-C) is less than 1 µg/mL?
Out: Criterion not met

* * *

- System: Acinetobacter baumannii NCTC 13304 (OXA-27)
- Assay type: cell-based
- Condition: NCTC 13304
Bridge positions count the residues as written; N and C are the ends. Square brackets hold non-standard residues; d marks the D form. Peptide text beside a SMILES is read from it. * marks the point of attachment. Dab(CH2SO3H) = N[C@@H](CCNCS(=O)(=O)O)C(=O)O; Heptanoyl(6-Me) = CC(C)CCCCC(=O)*; Nonanoyl = CCCCCCCCC(=O)*; X1 = CC[C@H](C)CCCCC(=O)*; Orn = NCCC[C@H](N)C(=O)O; dDap = NC[C@@H](N)C(=O)O; Dab = NCC[C@H](N)C(=O)O; Dap = NC[C@H](N)C(=O)O
Recorded measurements of MIC, one per entry
Provide the reading as a plain figure in µg/mL.

In: State its MIC for this compound: CC(C)CCCCC(=O)N[C@@H](CCN)C(=O)N[C@H](C(=O)N[C@@H](CN)C(=O)N[C@H]1CCNC(=O)[C@H]([C@@H](C)O)NC(=O)[C@H](CCN)NC(=O)[C@H](CCNCS(=O)(=O)O)NC(=O)[C@H]([C@@H](C)O)NC(=O)[C@@H](Cc2ccccc2)NC(=O)[C@H](CCN)NC1=O)[C@@H](C)O [Compound 119] ({Heptanoyl(6-Me)}-[Dab]T[Dap][Dab][Dab][dF]T[Dab(CH2SO3H)][Dab]T; lactam 4-C)
Out: 0.06

In: Entry CCCCCCCCC(=O)N[C@@H](CCN)C(=O)N[C@H](C(=O)N[C@H](CO)C(=O)N[C@H]1CCNC(=O)[C@H]([C@@H](C)O)NC(=O)[C@H](CCCN)NC(=O)[C@H](CCN)NC(=O)[C@H]([C@@H](C)O)NC(=O)[C@@H](Cc2ccccc2)NC(=O)[C@H](CCN)NC1=O)[C@@H](C)O [Compound 90] (Nonanoyl-[Dab]T[dS][Dab][Dab][dF]T[Dab][Orn]T; lactam 4-C) needs its MIC filled in; supply it.
Out: 0.03

In: Read the entry CC[C@H](C)CCCCC(=O)N[C@@H](CCN)C(=O)N[C@H](C(=O)N[C@H](CN)C(=O)N[C@H]1CCNC(=O)[C@H]([C@@H](C)O)NC(=O)[C@H](CCN)NC(=O)[C@H](CCN)NC(=O)[C@H](CC(C)C)NC(=O)[C@@H](Cc2ccccc2)NC(=O)[C@H](CCN)NC1=O)[C@@H](C)O [Compound 31] (X1-[Dab]T[dDap][Dab][Dab][dF]L[Dab][Dab]T; lactam 4-C) and write its reported MIC.
Out: 0.03

* * *

Listing of recorded MIC by entry.
- Tested on: Acinetobacter baumannii ABA19-1
- Type: cell-based
- Condition: ABA19-1
Bridge positions count the residues as written; N and C are the ends. Square brackets hold non-standard residues; d marks the D form. Peptide text beside a SMILES is read from it. * marks the point of attachment. Dab(CH2SO3H) = N[C@@H](CCNCS(=O)(=O)O)C(=O)O; Heptanoyl(6-Me) = CC(C)CCCCC(=O)*; Sulfomethyl = O=S(=O)(O)C*; X1 = CC[C@H](C)CCCCC(=O)*; Dab = NCC[C@H](N)C(=O)O; Dap = NC[C@H](N)C(=O)O

As a guide, the following entries are already answered.
1) CC[C@H](C)CCCCC(=O)N[C@@H](CCN)C(=O)N[C@H](C(=O)N[C@@H](CCN)C(=O)N[C@H]1CCNC(=O)[C@H]([C@@H](C)O)NC(=O)[C@H](CCN)NC(=O)[C@H](CCN)NC(=O)[C@H]([C@@H](C)O)NC(=O)[C@@H](Cc2ccccc2)NC(=O)[C@H](CCN)NC1=O)[C@@H](C)O [Compound 16] (X1-[Dab]T[Dab][Dab][Dab][dF]T[Dab][Dab]T; lactam 4-C)	≤0.03 µg/mL
2) CC(C)CCCCC(=O)N[C@@H](CCN)C(=O)N[C@H](C(=O)N[C@@H](CN)C(=O)N[C@H]1CCNC(=O)[C@H]([C@@H](C)OCS(=O)(=O)O)NC(=O)[C@H](CCN)NC(=O)[C@H](CCN)NC(=O)[C@H]([C@@H](C)O)NC(=O)[C@@H](Cc2ccccc2)NC(=O)[C@H](CCN)NC1=O)[C@@H](C)O [Compound 115] ({Heptanoyl(6-Me)}-[Dab]T[Dap][Dab][Dab][dF]T[Dab][Dab]T(Sulfomethyl); lactam 4-C)	0.06 µg/mL

Now take the following molecule into account.
In: Quick one: give measured MIC for CC(C)CCCCC(=O)N[C@@H](CCN)C(=O)N[C@H](C(=O)N[C@H](CO)C(=O)N[C@H]1CCNC(=O)[C@H]([C@@H](C)O)NC(=O)[C@H](CCNCS(=O)(=O)O)NC(=O)[C@H](CCN)NC(=O)[C@H]([C@@H](C)O)NC(=O)[C@@H](Cc2ccccc2)NC(=O)[C@H](CCN)NC1=O)[C@@H](C)O [Compound 111] ({Heptanoyl(6-Me)}-[Dab]T[dS][Dab][Dab][dF]T[Dab][Dab(CH2SO3H)]T; lactam 4-C)
Out: 0.25 µg/mL
